Values from patent US20220298135A1

Reported melting point values for a set of compounds

According to the records, this compound Cl.Nc1ccc(-c2csc3ccccc23)c(N)n1 displays melting point of 35 to 38 °C

According to the records, this compound CCCc1nc(N)ccc1-c1cccc2cccnc12.Cl displays melting point of 80 to 120 °C

According to the records, this compound Cl.Nc1ccc(-c2cccc3ccoc23)c(N)n1 displays melting point of > 250 °C

According to the records, this compound CCc1nc(N)ccc1-c1cccc2nccn12.Cl displays melting point of 115 to 155 °C

According to the records, this compound CC(C)Cc1nc(N)ccc1-c1cccc2cccnc12.Cl displays melting point of 100 to 140 °C

---

TARGET_OR_TEST_SYSTEM: human NPFFR1 (hNPFFR1) receptor (Homo sapiens, UniProt Q9GZQ6)
Sequence (Q9GZQ6 whole entry): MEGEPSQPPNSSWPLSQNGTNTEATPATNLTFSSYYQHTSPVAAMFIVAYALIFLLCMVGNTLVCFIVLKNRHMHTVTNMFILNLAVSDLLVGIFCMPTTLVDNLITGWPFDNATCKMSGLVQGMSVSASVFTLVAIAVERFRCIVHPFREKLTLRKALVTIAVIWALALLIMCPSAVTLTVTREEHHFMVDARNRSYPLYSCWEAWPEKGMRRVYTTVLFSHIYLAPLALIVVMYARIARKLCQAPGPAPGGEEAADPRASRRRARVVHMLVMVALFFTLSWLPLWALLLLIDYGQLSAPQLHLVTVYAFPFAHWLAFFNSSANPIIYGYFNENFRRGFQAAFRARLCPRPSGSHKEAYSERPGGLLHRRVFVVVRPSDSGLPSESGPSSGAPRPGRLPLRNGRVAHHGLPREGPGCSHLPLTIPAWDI
PROTOCOL: Human NPFFR1 evaluation using BRET biosensors (antagonist IC50)
MEASUREMENT_CONDITIONS: hNPFFR1 transiently over-expressed in HEK-293 T cells; BRET signal; stimulation by EC80 RFRP-3
Method: Compounds of the present invention were tested successively for their agonist and antagonist activities on human NPFFR1 (hNPFFR1) receptor transiently over-expressed in HEK-293 T cells. […] Receptor activity is detected by changes in BRET signal. […] Compounds and luciferase substrate are added to the cells using an automated device (Freedom Evo®, Tecan) and BRET readings are collected on EnVision (PerkinElmer) with specific filters (410 nm BW 80 nm, 515 nm BW 30 nm). […]
MEASUREMENT_NAME: IC50

Item: Cl.Nc1ccc(-c2c(F)ccc3cccnc23)c(CCCC(F)(F)F)n1 | System: human NPFFR1 (hNPFFR1) receptor (Homo sapiens, UniProt Q9GZQ6) | IC50: < 100 nM

---

TARGET_OR_TEST_SYSTEM: human NPFFR1 (hNPFFR1) receptor (Homo sapiens, UniProt Q9GZQ6)
PROTOCOL: Human NPFFR1 evaluation using BRET biosensors (antagonist IC50)
MEASUREMENT_CONDITIONS: hNPFFR1 transiently over-expressed in HEK-293 T cells; BRET signal; stimulation by EC80 RFRP-3
Reported IC50 values for a set of compounds

Answered examples (3):
> print(dat)
                structure.notation                     target.or.test.system  measurement.name  endpoint.value
1  Nc1ccc(-c2csc3ccc(F)cc23)c(N)n1  human NPFFR1 (hNPFFR1) receptor (Homo sapiens, UniProt Q9GZQ6)              IC50  100 to 1000 nM
2    Nc1ccc(-c2cncc3ccccc23)c(N)n1  human NPFFR1 (hNPFFR1) receptor (Homo sapiens, UniProt Q9GZQ6)              IC50       > 1000 nM
3  CN1Cc2c(cccc2-c2ccc(N)nc2N)C1=O  human NPFFR1 (hNPFFR1) receptor (Homo sapiens, UniProt Q9GZQ6)              IC50       > 1000 nM

According to the records, this compound CCc1nc(N)ccc1-c1cccc2ccc(-c3ccccc3)nc12 displays IC50 of < 100 nM

According to the records, this compound Cc1cc(-c2ccc(N)nc2N)c2ncccc2c1.Cl displays IC50 of < 100 nM

According to the records, this compound CCc1nc(N)ccc1-c1cccn2ccnc12.Cl displays IC50 of > 1000 nM

---

Reported melting point values for a set of compounds

Answered examples (3):
> print(dat)
                         structure.notation  measurement.name  endpoint.value
1  CCc1nc(N)ccc1-c1cccc2ccc(N3CCC(F)(F)CC3)nc12.Cl     melting point   120 to 141 °C
2  Cl.Nc1ccc(-c2ccc(C(F)(F)F)c3cccnc23)c(N)n1     melting point        > 250 °C
3        CCc1nc(N)ccc1-c1c(C)ccc2cccnc12.Cl     melting point    90 to 130 °C

According to the records, this compound CCc1nc(N)ccc1-c1cccc2ccc(C(=O)N3CCCOCC3)nc12.Cl displays melting point of 120 to 131 °C

According to the records, this compound Nc1ccc(-c2cnn3ccccc23)c(N)n1 displays melting point of 195 to 200 °C

According to the records, this compound CCc1nc(N)ccc1-c1cccc2ccc(N3CCCOCC3)nc12.Cl displays melting point of 50 to 90 °C

According to the records, this compound Cl.Nc1ccc(-c2cccc3ccncc23)c(C2CC2)n1 displays melting point of 200 to 215 °C

According to the records, this compound CCc1nc(N)ccc1-c1cccc2ccc(C(=O)N3CCCC3)nc12.Cl displays melting point of 100 to 125 °C

According to the records, this compound CCc1nc(N)ccc1-c1cccc2ccc(=O)n(C)c12.Cl displays melting point of 132 to 145 °C

---

Counter-ions that a name gives are not always drawn.
MEASUREMENT_NAME: melting point

Answered examples (5):
> print(dat)
                                   molecule  endpoint.value
1  CCc1nc(N)ccc1-c1cccc2ccc(C(=O)N(CC)C3CCCCC3)nc12.Cl   142 to 148 °C
2           CCc1nc(N)ccc1-c1cccc2nccnc12.Cl        > 250 °C
3         Cl.Cn1nccc1-c1ccccc1-c1ccc(N)nc1N        > 250 °C
4  CCc1nc(N)ccc1-c1cccc2ccc(-c3ccncc3)nc12.Cl        > 250 °C
5  CCc1nc(N)ccc1-c1c(F)ccc2c1OC(C)(C)CC2.Cl     80 to 90 °C

According to the records, this molecule CCCc1nc(N)ccc1-c1cccc2ccncc12.Cl displays melting point of 100 to 117 °C

According to the records, this molecule Nc1ccc(-c2coc3ccccc23)c(N)n1 displays melting point of 109 to 112 °C

According to the records, this molecule Cl.Nc1ccc(-c2ccccc2-c2ccc(N3CCOCC3)nc2)c(N)n1 displays melting point of 180 to 210 °C

According to the records, this molecule CCc1nc(N)ccc1-c1cccc2ccc(C(=O)NCc3ccccc3)nc12.Cl displays melting point of 102 to 114 °C

According to the records, this molecule CCc1nc(N)ccc1-c1cccc2ccc(C3(C)CC3)nc12.Cl displays melting point of 90 to 95 °C

According to the records, this molecule CCc1nc(N)ccc1-c1cccc2ccc(COC)nc12.Cl displays melting point of 210 to 225 °C

According to the records, this molecule CCc1nc(N)ccc1-c1cccc2ccc(C(=O)N3CCCCCC3)nc12.Cl displays melting point of 140 to 144 °C

According to the records, this molecule CCc1nc(N)ccc1-c1cccc2ccc(C(=O)N3CCC(c4ccccc4)CC3)nc12.Cl displays melting point of > 250 °C

According to the records, this molecule Cl.Nc1ccc(-c2c(F)ccc3cccnc23)c(CC2CC2)n1 displays melting point of 170 to 207 °C

According to the records, this molecule CC(C)Cc1nc(N)ccc1-c1c(F)ccc2cccnc12.Cl displays melting point of 130 to 170 °C

According to the records, this molecule CCc1nc(N)ccc1-c1c(F)ccc2c1OCCC2.Cl displays melting point of 85 to 95 °C

According to the records, this molecule CCc1nc(N)ccc1-c1cccc2ccc(C(=O)N(C)C)nc12 (as salt: hydrochloride) displays melting point of 103 to 113 °C

According to the records, this molecule CCc1nc(N)ccc1-c1csc2cc(OC)ccc12 displays melting point of 151 to 155 °C

According to the records, this molecule Nc1ccc(-c2cccc3cc[nH]c23)c(N)n1 displays melting point of 62 to 70 °C

---

Reported melting point values for a set of compounds

According to the records, this compound CCc1nc(N)ccc1-c1ccccc1-c1cncc(C)c1.Cl [Example 85] displays melting point of 120 to 150 °C

According to the records, this compound CCc1nc(N)ccc1-c1c(F)ccc2ccc(N3CC4CCC(C3)O4)nc12.Cl [Example 136] displays melting point of 140 to 172 °C

According to the records, this compound CCc1nc(N)ccc1-c1cccc2ccc(N3CCCC3)nc12.Cl [Example 131] displays melting point of > 250 °C

According to the records, this compound CCc1nc(N)ccc1-c1cccc2ccc(N3CCOCC3)nc12.Cl [Example 129] displays melting point of 100 to 150 °C

According to the records, this compound CCc1nc(N)ccc1-c1cccc2c(C)ccnc12.Cl [Example 91] displays melting point of > 250 °C

---

Reported melting point values for a set of compounds

> print(dat)
                         structure.notation  endpoint.value
1       Cl.Nc1ccc(-c2cccc3cc(F)cnc23)c(N)n1   114 to 116 °C
2             Nc1ccc(-c2cncc3ccccc23)c(N)n1   180 to 185 °C
3  CCc1nc(N)ccc1-c1c(F)c(F)cc2cc(F)cnc12.Cl   120 to 130 °C
4    CCc1nc(N)ccc1-c1cccc2cc3c(nc12)CCC3.Cl   153 to 169 °C

According to the records, this compound Cl.Nc1ccc(-c2cccc3cccnc23)c(CC2CCC2)n1 displays melting point of 120 to 180 °C

According to the records, this compound CCc1nc(N)ccc1-c1ccc(C)c2cccnc12.Cl displays melting point of > 250 °C

According to the records, this compound CCc1nc(N)ccc1-c1ccccc1-c1cccnc1.Cl displays melting point of > 250 °C

According to the records, this compound CCc1nc(N)ccc1-c1cccc2c1OCCC2.Cl displays melting point of 180 to 192 °C

According to the records, this compound CCc1nc(N)ccc1-c1ccccc1-c1ccc(C(F)(F)F)nc1.Cl displays melting point of > 250 °C

According to the records, this compound CCCc1nc(N)ccc1-c1csc2ccccc12.Cl displays melting point of 175 to 190 °C
